system-tested: Ba/F3 stable cells (Homo sapiens, UniProt P00533, DUP767-769, cells depend on it)
Construct: EC50 Ba/F3-EGFR V769-D770insASV; other: Ba/F3-EGFR V769-D770insASV cells, 72 h, CCK-8
Sequence (P00533 with tags, fused parts or gaps DUP767-769): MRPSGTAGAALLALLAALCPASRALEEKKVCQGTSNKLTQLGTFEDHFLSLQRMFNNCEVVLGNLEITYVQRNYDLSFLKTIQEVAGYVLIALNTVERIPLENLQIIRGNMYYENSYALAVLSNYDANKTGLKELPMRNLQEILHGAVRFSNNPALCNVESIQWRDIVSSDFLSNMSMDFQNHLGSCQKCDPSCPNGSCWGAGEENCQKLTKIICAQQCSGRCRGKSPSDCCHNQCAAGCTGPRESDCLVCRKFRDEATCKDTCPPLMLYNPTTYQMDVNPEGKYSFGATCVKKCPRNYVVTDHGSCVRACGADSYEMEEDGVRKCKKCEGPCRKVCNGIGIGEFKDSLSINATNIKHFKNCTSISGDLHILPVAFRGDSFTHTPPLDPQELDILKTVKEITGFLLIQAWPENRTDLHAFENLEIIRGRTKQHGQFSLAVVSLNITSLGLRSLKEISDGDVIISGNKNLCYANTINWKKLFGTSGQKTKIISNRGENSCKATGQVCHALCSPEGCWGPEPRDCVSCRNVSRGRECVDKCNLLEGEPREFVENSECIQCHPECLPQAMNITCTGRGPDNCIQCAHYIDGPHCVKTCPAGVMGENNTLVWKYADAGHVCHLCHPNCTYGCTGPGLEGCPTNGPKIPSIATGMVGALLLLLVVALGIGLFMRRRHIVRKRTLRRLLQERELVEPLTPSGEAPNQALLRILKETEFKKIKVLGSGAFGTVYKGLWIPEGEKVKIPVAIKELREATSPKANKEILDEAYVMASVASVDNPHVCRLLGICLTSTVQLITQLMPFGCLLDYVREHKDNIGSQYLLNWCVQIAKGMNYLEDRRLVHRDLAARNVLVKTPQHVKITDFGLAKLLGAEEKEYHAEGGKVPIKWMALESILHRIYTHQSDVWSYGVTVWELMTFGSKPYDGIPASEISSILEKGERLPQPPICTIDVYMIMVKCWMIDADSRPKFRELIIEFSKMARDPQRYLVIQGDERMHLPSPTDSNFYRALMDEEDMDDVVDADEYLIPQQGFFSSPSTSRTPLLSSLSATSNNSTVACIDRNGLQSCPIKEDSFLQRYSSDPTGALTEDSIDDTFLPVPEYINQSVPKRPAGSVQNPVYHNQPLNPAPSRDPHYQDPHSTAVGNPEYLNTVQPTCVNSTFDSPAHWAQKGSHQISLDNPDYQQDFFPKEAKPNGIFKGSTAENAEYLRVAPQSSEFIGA
test-summary: EC50 assay: Ba/F3 stable cell proliferation (CCK-8, 72 h)
conditions-used: Ba/F3-EGFR V769-D770insASV cells
pEC50: −log10 of the molar value.
parameter-measured: pEC50

C=CC(=O)N[C@H]1CC[C@H](Oc2cc3c(Nc4ccc(Cl)c(Cl)c4F)ncnc3cc2OC)CC1 [Compound 91]
6.00 to 6.70
C=CC(=O)N1CCC(Oc2cc3c(NCc4cccc(Cl)c4)ncnc3cc2OC)CC1 [Compound 106]
≥ 6.70
C=CC(=O)N1CCC(Oc2cc3c(NCc4cccc(C)c4)ncnc3cc2OC)CC1 [Compound 121]
6.00 to 6.70
C=CC(=O)N1CCC(Oc2cc3c(N4CCN(c5cccc(Cl)c5)CC4)ncnc3cc2OC)CC1 [Compound 147]
< 6.00

Challenge: Given the compound C=C(F)C(=O)N[C@H]1C[C@@H](Oc2cc3c(Nc4ccc(Cl)c(Cl)c4F)ncnc3cc2OC)C1 [Compound 40] , what is its reported pEC50?
Response given: ≥ 6.70
